Ref: the supplement of paper PMC10065799

molecular target: Fes (UniProt P07332); experiment: phosphorylation enrichment, bacterial display (enrichment ratio); higher = better substrate or ligand; peptides without Tyr show the background;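 further: 11-residue human phosphosite peptides and single-mutation variants displayed on the E. coli surface, counted by deep sequencing, each peptide's frequency after selection divided by its frequency in the unselected input library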;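 further: frequency after pTyr selection over input frequency; kinase dosed for 20-30% of maximal phosphorylation in three min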
Sequence (P07332 whole entry, looked up): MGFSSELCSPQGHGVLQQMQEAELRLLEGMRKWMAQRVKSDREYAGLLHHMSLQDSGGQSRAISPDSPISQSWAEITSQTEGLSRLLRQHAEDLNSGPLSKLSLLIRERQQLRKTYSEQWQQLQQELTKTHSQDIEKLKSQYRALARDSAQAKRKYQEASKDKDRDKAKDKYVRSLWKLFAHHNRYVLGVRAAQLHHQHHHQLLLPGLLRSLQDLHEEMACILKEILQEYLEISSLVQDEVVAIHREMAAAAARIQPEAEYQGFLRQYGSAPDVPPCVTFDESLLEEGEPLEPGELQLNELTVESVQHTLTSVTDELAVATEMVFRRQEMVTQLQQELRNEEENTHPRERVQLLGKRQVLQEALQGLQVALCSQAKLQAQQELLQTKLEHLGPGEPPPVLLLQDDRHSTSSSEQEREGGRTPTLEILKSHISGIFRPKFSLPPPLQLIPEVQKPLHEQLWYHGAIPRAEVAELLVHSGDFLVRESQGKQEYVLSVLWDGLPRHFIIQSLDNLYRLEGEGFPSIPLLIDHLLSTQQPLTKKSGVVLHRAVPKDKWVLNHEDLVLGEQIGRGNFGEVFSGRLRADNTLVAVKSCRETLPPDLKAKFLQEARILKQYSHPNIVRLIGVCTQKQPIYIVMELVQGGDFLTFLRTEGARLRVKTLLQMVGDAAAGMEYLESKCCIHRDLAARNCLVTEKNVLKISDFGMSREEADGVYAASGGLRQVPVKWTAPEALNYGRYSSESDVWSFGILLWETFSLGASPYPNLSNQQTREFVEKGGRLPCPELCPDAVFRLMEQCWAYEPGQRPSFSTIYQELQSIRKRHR
Would you kindly list phosphorylation enrichment for each of these sequences?
Give bare numbers.

1) SSTASYFEAPG [RFX2_Y108] :: 0.802

Respectfully, I request phosphorylation enrichment for each entry included below.
1. LLIMEYAKYGS [RET_Y806_V804M]
2. RLGVTYEQALA [MAP2_Y996_G991R]
3. WANPEYTGGFK

Solution:
1: 1.81; 2: 1; 3: 1

Respectfully, I request phosphorylation enrichment for each entry included below.
1. PGPPGYCDSSH [COL12A1_Y3043_Q3048H]
2. RQSRNYLGGFA [SYK_Y47]
3. GEDEPYAEPYA [APBA1_Y183_S184A]
4. YDYKKYGKGLR [ZNF445_Y433]
5. LLVVLYKFRCF [PSEN1_Y154_Y159F_YF]
6. YECKWYIPLTD [BCR_Y756_D752E]
7. VVKLTYNENDN [CAMKK2_Y183_A182T]
8. SKNSKCNAEST [PSEN1_Y315_Y315C]

Solution:
1.62
0.562
1.53
0.517
1.97
1.56
0.917
0.768

Respectfully, I request phosphorylation enrichment for each entry included below.
1. ADFPDYKFRPR [SOX11_Y116_YF]
2. PATFTYDEFKK [COL8A2_Y648_YF]

Solution:
1. 0.697
2. 1.43

* * *

system: c-Abl (mouse); experiment: phosphorylation enrichment, bacterial display (enrichment ratio); higher = better substrate or ligand; peptides without Tyr show the background
Label rule, in plain words: phosphorylation enrichment of 0.8 and up is condition met, under 0.8 is condition not met.

1) ALAAPYVLFPG [CEFIP_Y1332_YF] :: condition not met
2) WFPANYVKLLN [ITSN1_Y1132_S1137N] :: condition not met
3) STTIHYNFMCN [TP53_Y234_C229S_YF] :: condition not met

Problem: Reported phosphorylation enrichment reaches at least 0.8 for RRNNSYTCFTA [SLC20A2_Y386_YF] ?
Solution: condition met

Problem: Reported phosphorylation enrichment reaches at least 0.8 for RKMSSYAFFVQ [HMGB1_Y16_G11R] ?
Solution: condition not met

Problem: Reported phosphorylation enrichment reaches at least 0.8 for GDPTEYYSTAI [IGSF22_Y501] ?
Solution: condition not met

Problem: Reported phosphorylation enrichment reaches at least 0.8 for GYEEAYSVSKK [PAFAH1B1_Y28_F31S] ?
Solution: condition not met

Problem: Reported phosphorylation enrichment reaches at least 0.8 for YRIGPYQPSVP [MATR3_Y784_N787S] ?
Solution: condition not met

Problem: Reported phosphorylation enrichment reaches at least 0.8 for TAGFIYEKWEI [TEC_Y360_S359I] ?
Solution: condition met

* * *

molecular target: EPHB1 (UniProt P54762); assay: phosphorylation enrichment, bacterial display (enrichment ratio); higher = better substrate or ligand; peptides without Tyr show the background
Sequence (P54762 whole entry, looked up): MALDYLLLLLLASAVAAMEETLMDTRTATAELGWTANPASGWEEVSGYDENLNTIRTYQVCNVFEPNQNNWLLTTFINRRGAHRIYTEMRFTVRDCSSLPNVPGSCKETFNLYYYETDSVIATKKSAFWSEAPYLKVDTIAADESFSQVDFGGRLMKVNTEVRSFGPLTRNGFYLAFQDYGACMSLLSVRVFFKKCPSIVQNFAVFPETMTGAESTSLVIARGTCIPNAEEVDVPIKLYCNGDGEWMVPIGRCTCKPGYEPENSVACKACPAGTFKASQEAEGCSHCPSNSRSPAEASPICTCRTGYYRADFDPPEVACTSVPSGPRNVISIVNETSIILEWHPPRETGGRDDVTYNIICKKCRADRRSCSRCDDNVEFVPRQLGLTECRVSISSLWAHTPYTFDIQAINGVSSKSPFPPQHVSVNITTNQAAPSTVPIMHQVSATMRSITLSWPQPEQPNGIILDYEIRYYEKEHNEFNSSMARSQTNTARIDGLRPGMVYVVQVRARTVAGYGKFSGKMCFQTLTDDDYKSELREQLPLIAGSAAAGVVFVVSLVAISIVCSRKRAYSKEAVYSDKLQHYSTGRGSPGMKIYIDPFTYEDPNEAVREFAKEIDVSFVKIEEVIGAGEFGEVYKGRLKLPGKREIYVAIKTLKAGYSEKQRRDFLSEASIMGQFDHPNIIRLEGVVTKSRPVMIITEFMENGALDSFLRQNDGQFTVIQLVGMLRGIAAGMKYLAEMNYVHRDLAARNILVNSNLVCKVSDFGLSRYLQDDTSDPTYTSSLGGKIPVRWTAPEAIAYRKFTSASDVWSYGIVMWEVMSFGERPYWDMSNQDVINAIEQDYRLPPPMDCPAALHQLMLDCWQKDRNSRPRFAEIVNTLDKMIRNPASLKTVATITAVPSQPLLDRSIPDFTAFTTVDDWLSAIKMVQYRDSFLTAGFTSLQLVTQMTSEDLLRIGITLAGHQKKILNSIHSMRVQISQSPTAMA
Label rule, in plain words: phosphorylation enrichment of 0.4 and up is true, under 0.4 is false.

1) FFVVRYCWLRR [MPZ_Y181_YF] :: true
2) FADIAYNFRDG [PAH_Y166_H170D_YF] :: true
3) GYEEAYSVSKK [PAFAH1B1_Y28_F31S] :: true

Problem: Reported phosphorylation enrichment reaches at least 0.4 for KMKGDYFCFLA [YWHAG_Y130_R132C_YF] ?
Solution: true

Problem: Reported phosphorylation enrichment reaches at least 0.4 for SSTASYFEAPG [RFX2_Y108] ?
Solution: true

Problem: Reported phosphorylation enrichment reaches at least 0.4 for QTEAQYRFIFM [PTPN11_Y511_YF] ?
Solution: true

Problem: Reported phosphorylation enrichment reaches at least 0.4 for EATKGYLDDPT [G6PD_Y322] ?
Solution: true

Problem: Reported phosphorylation enrichment reaches at least 0.4 for YDYKKYGKGLR [ZNF445_Y433] ?
Solution: false

Problem: Reported phosphorylation enrichment reaches at least 0.4 for ADFPDYKFRPR [SOX11_Y116_YF] ?
Solution: false
